For each of the molecules below, state its CC50 at 48 h.
Test: Cytotoxicity against human HepG2 cells assessed as reduction in cell viability measured after 48 hrs by CellTiter-Glo assay
Assay type: cell-based

Lookup result for CCCn1c(NC(=O)Cc2ccc(Cl)cc2)nc2cccc(C)c21 ; measured CC50 at 48 h: > 50 µM

// field: CC50 at 48 h; key: CCCn1c(NC(=O)Cc2ccc(F)cc2)nc2ccccc21 ; value = > 50 µM

Please look at the items below and tell me CC50 at 48 h for each one, in order.
1. CCCn1c(NC(=O)Cc2ccc3ccccc3c2)nc2ccccc21
2. C=CCc1c(NC(=O)Cc2ccc(Cl)cc2)ncc2ccccc12
3. CCCn1c(NC(=O)Cc2ccc(OC(F)(F)F)cc2)nc2ccccc21
4. CCCn1c(NC(=O)Cc2ccc(Cl)cc2)nc2ccc(Br)cc21
5. CCCCC(=O)Nc1nc2ccccc2n1CCC
6. CCCn1c(NC(=O)Cc2ccccc2Cl)nc2ccccc21
7. CCCCn1c(NC(=O)Cc2ccc(Cl)cc2)nc2ccccc21

## Output
["25 µM", "> 50 µM", "> 50 µM", "> 50 µM", "> 50 µM", "25 µM", "> 50 µM"]

Provenance of the data: ChEMBL document CHEMBL4699414
